Target: T1, his-tagged murine TIGIT (Acro Biosystems #TIT-M52E6) (murine, UniProt P86176 29-148, limits assumed)
T1 construct: Bought protein; also called mouse his-tagged TIGIT; not shown: his tag
T1 sequence (looked up): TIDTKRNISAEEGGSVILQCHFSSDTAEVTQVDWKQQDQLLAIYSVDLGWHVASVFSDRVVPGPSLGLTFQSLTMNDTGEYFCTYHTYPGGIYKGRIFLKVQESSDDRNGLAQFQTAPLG
Assay: SPR (Carterra LSA), scFv-Fc captured, His-TIGIT analyte; repeat
Measured Kd by item
# value in nM; strip the unit string

Known results for binders:
binder	Kd (nM)
43645p1.H10 (scFv, V domains shown) VH: EVQLLESGGGLVQAGGSLRLSCAASGFTFDDYVMTWVRQAPGKGLEWVSLINWSGDRTYYADSVKGRFTISRDNSKNTLYLQMNSLRAEDTAVYYCVKHNLNYYYGMDVWGQGTTVTVSS VL: QSVLTQPPSVSGTPGQRVTISCSGTISNVGNKYVSWYQQVPGTAPKLLIDYNQRPSGVPDRFSGSQSGTSASLTISGLQSEDEADYYCATWDDSLKGWVFGGGTKLTVL	0.595
43645p1.B2 (scFv, V domains shown) VH: EVQLLESGGGLVQPGGSLRLSCATSGFTFSSYWMSWVRQAPGKGLEWVSGIHISDSTYYADSVKGRFTISRDNSKNTLYLQMNSLRAEDTAVYYCAKGHTVLQYGMDVWGQGTTVTVSS VL: QSGLTQPPSASGTPGQRVTISCSGDISNTRNNYVSWYQQLPGTAPKLLIYGNHQRPSGVPDRFSGSKSATSASLAISGLQSEDEADYHCGTWDNTLNAWVFGGGTKLTVL	42

Now take the following binder into account.
Look at this binder and give its reported Kd. 43586p1.2.G4 (scFv, V domains shown) VH: EVQLLESGGGLVQPGGSLRLSCAASGFTFDDYVMSWVRQAPGKGLEWVSLINWNGDKTYYADSVKGRFTISRDNSKNTLYLQMNSLRAEDTAVYYCARHWIVFQYGLDVWGQGTTVTVSS VL: QSVLTQPLSASGTPGQRVTISCSGVSSNIEIKYVSWYQQLPGTAPKLLIYNSHQRPSGVPDRFSGSKSGTSASLAISGLQSEDEADYYCTSWDDRLKSWVFGGGTKLTVL
4.8
